Origin of values: patent US10513521B2

- MEASUREMENT TARGET: ALK2 (Homo sapiens, UniProt Q04771)
- Sequence (Q04771 21-509): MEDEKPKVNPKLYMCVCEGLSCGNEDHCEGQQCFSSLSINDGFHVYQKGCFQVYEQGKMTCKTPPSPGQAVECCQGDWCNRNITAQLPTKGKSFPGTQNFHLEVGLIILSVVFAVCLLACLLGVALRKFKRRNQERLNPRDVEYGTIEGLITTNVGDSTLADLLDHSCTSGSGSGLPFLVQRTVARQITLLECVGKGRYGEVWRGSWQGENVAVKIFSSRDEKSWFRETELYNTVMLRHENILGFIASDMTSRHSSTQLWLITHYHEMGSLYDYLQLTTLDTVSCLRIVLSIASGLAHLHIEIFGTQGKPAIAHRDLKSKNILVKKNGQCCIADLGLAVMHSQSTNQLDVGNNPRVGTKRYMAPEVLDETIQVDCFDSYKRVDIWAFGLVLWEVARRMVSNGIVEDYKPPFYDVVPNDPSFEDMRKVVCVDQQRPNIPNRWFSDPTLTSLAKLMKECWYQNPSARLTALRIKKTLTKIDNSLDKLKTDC
- ASSAY EXPLANATION: TR-FRET enzymatic ALK kinase assay, ALK2
OBSERVATION TYPE: IC50 (nM)
Dear colleague, please return just the value in nM, with no unit written.

Check out these entries, answers already filled in.
CS(=O)(=O)c1cccc(-c2cnn3cc(-c4ccc(CCN5CCOCC5)cc4)cnc23)c1 [Compound 131]: 150
C[S+](=O)([O-])c1cccc(-c2cnn3cc(-c4ccc(CCN5CCC6(CC5)CNC6)cc4)cnc23)c1 [Compound 178]: 92
CNS(=O)(=O)c1cccc2c(-c3cnn4cc(-c5ccc(N6[C@H](C)CNC[C@@H]6C)cc5)cnc34)cccc12 [Compound 41]: 120
N/C(=N/O)c1ccc(-c2cnn3cc(-c4ccc(N5CCNCC5)cc4)cnc23)c2ccccc12 [Compound 15]: 43
CS(=O)(=O)c1cccc(-c2cnn3cc(-c4ccc(CCN5CCC(O)CC5)cc4)cnc23)c1 [Compound 140]: 140
C[C@@H](O)c1cccc(-c2cnn3cc(-c4ccc(CCN5CCCC5)cc4)cnc23)c1 [Compound 156]: 160

Note: attention shifts to another entry.
Q) Lab note: ALK2 (Homo sapiens, UniProt Q04771) assay, enter IC50 for CC(C)(O)c1cccc(-c2cnn3cc(-c4ccc(C5CCNCC5)cc4)cnc23)c1 [Compound 100] here
A) 39

---

- MEASUREMENT TARGET: ALK4 (Homo sapiens, UniProt P36896)
- Sequence (P36896 24-505): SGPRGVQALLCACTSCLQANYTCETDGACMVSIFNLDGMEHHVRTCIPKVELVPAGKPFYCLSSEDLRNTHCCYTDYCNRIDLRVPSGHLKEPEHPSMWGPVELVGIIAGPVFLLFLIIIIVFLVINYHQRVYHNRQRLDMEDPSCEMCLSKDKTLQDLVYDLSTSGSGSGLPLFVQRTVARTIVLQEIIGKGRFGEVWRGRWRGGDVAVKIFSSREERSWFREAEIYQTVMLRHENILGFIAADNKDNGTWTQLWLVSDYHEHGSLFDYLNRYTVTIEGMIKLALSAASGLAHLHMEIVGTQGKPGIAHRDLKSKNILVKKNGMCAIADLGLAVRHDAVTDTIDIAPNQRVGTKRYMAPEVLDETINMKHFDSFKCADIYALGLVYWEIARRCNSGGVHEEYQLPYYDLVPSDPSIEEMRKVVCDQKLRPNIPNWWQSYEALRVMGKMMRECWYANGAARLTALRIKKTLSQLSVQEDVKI
- ASSAY EXPLANATION: TR-FRET enzymatic ALK kinase assay, ALK4
pIC50: −log10 of the molar value.
OBSERVATION TYPE: pIC50

Guide cases for pIC50, answers given:
C[S+](=O)([O-])c1cccc(-c2cnn3cc(-c4ccc(OCCN5CCCCC5)cc4)cnc23)c1: < 5.00
C[C@H](O)c1cccc(-c2cnn3cc(-c4ccc(OC5(CN6CCC7(CC6)CNC7)CC5)cc4)cnc23)c1: < 5.00

Q) Supply reported pIC50 belonging to this compound: CS(=O)(=O)c1cccc(-c2cnn3cc(-c4ccc(CCn5ccnc5)cc4)cnc23)c1
A) < 5.00

Q) For the compound CS(=O)(=O)c1cccc(-c2cnn3cc(-c4ccc(C(F)(F)CN5CCOCC5)cc4)cnc23)c1 , give its reported pIC50.
A) < 5.00

Q) Read off the recorded pIC50 for CC(O)c1cccc(-c2cnn3cc(-c4ccc(C5CCCNC5)cc4)cnc23)c1 (centres unmarked)
A) < 5.00

Q) Given the compound C[C@@H]1CNC[C@H](C)N1c1ccc(-c2cnc3c(-c4ccc(C#N)c5ccccc45)cnn3c2)cc1 , write its reported pIC50.
A) 5.32

Q) Quick one: give measured pIC50 for CS(=O)(=O)c1cccc(-c2cnn3cc(-c4ccc(CCN5CCCCC5)cc4)cnc23)c1
A) < 5.00

Q) Supply reported pIC50 belonging to this compound: C[S+](=O)([O-])c1cccc(-c2cnn3cc(-c4ccc(OC5(CN6CCOCC6)CC5)cc4)cnc23)c1
A) < 5.00

Q) Specify pIC50 for C[C@@H]1CNC[C@H](C)N1c1ccc(-c2cnc3c(-c4cccc(C[S+](C)(=O)[O-])c4)cnn3c2)cc1 and stop.
A) 5.07

Q) Give the measured pIC50 for CC1(c2ccc(-c3cnc4c(-c5cccc(S(C)(=O)=O)c5)cnn4c3)cc2)CCNCC1
A) 5.04
